- Subject Of Test: Gamma-aminobutyric acid receptor subunit alpha-1 (Homo sapiens, UniProt P14867+P18507+P47870)
- Sequence (P14867 whole entry): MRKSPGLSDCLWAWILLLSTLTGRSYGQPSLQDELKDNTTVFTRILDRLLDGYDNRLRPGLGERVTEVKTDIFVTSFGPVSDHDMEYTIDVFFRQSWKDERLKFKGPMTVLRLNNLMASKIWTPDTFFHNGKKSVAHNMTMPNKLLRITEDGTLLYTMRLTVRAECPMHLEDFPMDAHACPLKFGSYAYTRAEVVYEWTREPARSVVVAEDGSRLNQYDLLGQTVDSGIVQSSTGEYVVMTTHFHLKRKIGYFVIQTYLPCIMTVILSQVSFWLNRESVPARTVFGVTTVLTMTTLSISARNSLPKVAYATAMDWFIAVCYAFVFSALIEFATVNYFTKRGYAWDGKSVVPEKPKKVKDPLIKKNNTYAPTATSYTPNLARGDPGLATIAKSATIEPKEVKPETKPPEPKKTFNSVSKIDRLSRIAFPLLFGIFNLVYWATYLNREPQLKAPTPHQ
- Test: Binding affinity to GABAA alpha-1-beta-2-gamma-2 receptor
Flag rule - Kd less than 80 nM flags MET; the remaining entries get NOT MET.

Some entries whose results are on file:
- Compound: "CCOC(=O)c1ncn2c1C1CCCN1C(=O)c1cc(C#C[Si](C)(C)C)ccc1-2 (stereo not given)"
  Category Label: "NOT MET"
- Compound: "C#Cc1ccc2c(c1)C(c1ccccc1)=NCC(=O)N2C"
  Category Label: "MET"
- Compound: "CCOC(=O)c1ncn2c1[C@@H]1CCN1C(=O)c1cc(C#C[Si](C)(C)C)ccc1-2"
  Category Label: "NOT MET"
- Compound: "CCOC(=O)c1[nH]cc2nc3cc(OC)c(OC)cc3c-2c1CC"
  Category Label: "MET"

Here is the next item to consider.
Dear colleague, could you confirm whether Kd of `COCc1c(C(=O)OC(C)C)ncc2[nH]c3ccc(OCc4ccccc4)cc3c12` falls below 80 nM? Thanks. MET

###

// reported pIC50 for each item listed
- Subject Of Test: Gamma-aminobutyric acid receptor subunit alpha-5 (Homo sapiens, UniProt P18507+P31644+P47870)
- Sequence (P31644 whole entry, one chain of several): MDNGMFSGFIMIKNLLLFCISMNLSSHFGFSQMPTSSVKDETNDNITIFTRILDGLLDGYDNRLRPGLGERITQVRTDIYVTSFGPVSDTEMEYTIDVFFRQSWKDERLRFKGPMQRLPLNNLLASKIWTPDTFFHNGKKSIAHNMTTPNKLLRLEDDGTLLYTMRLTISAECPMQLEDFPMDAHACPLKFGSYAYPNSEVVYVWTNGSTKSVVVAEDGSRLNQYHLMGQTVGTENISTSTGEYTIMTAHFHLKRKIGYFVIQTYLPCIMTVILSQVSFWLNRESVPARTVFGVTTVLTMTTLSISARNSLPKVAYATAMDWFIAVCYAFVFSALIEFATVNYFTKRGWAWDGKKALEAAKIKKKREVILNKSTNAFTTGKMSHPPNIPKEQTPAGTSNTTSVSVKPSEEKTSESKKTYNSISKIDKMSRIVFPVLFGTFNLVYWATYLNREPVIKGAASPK
- Test: Displacement of [3H]Ro15-4513 from GABAA alpha-5-beta-2-gamma-2 receptor expressed in Sf9 baculovirus system
pIC50: −log10 of the molar value.

Would you please look over these solved cases?
- Compound: "CSC1SC(C(=O)c2ccc(Cl)cc2)C2CC(C)(C)CC(=O)C12 (stereo not drawn)"
  pIC50: 6.68
- Compound: "CN1C(=O)CN=C(c2ccccc2)c2ccccc21"
  pIC50: "< 5.00"
- Compound: "CSc1nccc(-c2ccc(S(=O)(=O)Nc3ccc(Cl)cc3)s2)n1"
  pIC50: "< 5.00"
- Compound: "CSC1SC(C(=O)c2cccc([N+](=O)[O-])c2)C2CC(C)(C)CC(=O)C12 (stereo not drawn)"
  pIC50: "< 5.00"
- Compound: "Cc1nn(Cc2nc(-c3cccc([N+](=O)[O-])c3)cs2)c(C)c1Br"
  pIC50: "< 5.00"

Query: pIC50; subject: CSC1SC(C(=O)c2ccc(Cl)cc2)C2CCCC(=O)C12 (stereo not drawn) 6.26

Look up pIC50 for this compound: CC(=O)NC1N=C(c2ccccc2)c2ccccc2NC1=O (stereo not drawn) < 5.00

Query (compound): `Nc1c(C(=O)c2ccc(Cl)cc2)sc2ccccc12` ; field requested: pIC50 6.00

Data origin, for the record: ChEMBL document CHEMBL1157475
